Where do these numbers come from? They come from PubChem BioAssay (Tox21).

# protocol.description: qHTS assay for small molecules that induce genotoxicity in human embryonic kidney cells expressing luciferase-tagged ATAD5 - cell viability (AID 651634); also: nearly all actives have a fitted effect of over 25% in size
# study.conditions: HEK293T ATAD5-luc cells viability, CellTiter-Fluor, 15.5 h; series mostly up to 83.3 µM
# Source text: National Center for Advancing Translational Sciences [NCATS] NIH Chemical Genomics Center [NCGC] U.S. Environmental Protection Agency [EPA] National Institutes of Environmental Health Sciences [NIEHS] National Toxicology Program [NTP] U.S. Food and Drug Administration [FDA] Enhanced Level of Genome Instability Gene 1 (ELG1; human ATAD5) protein levels increase in response to various types of DNA damage. […]
Inconclusive results are not listed. Activity calls are given as the source filed them. Calls follow the shape of the full dose curve. Starred links: 1 amine or outer side, 2 acyl side, 3 side chain; linkers in the order of their positions; H or OH if unused. Positions of bridges follow the written chain, without caps; N, C: chain ends. Non-standard residues stand in square brackets, D forms with d. Residues, ends and D or L forms follow the SMILES beside them. *: point of attachment. X5 = NC1=N[C@@H]([C@H](N[*:1])C(=O)[*:2])C[C@H](O)N1; ΔAla(Z-3-ureido) = NC(=O)N/C=C(\N)C(=O)O; β3hOrn = NCCC[C@H](N)CC(=O)*; Dap = NC[C@H](N)C(=O)O
Possible outcomes: true (1) (active), false (0) (inactive)

{"molecule": "COc1ccc(-c2noc(CC(=O)O)c2-c2ccc(OC)cc2)cc1", "qualitative.label": "false (0)"}
{"molecule": "COc1c(O[C@@H]2O[C@H](CO)[C@@H](O)[C@H](O)[C@H]2O)cc2c(c1OC)-c1ccc(SC)c(=O)cc1[C@@H](NC(C)=O)CC2", "qualitative.label": "false (0)"}
{"molecule": "C=C1CC2C3CCC4=CC(=O)C=C[C@]4(C)[C@@]3(F)[C@@H](O)C[C@]2(C)[C@@]1(O)C(=O)COC(C)=O (stereo partly specified)", "qualitative.label": "false (0)"}
{"molecule": "CCN(CC)CCOC(=O)c1ccc(N)cc1Cl", "qualitative.label": "false (0)"}
{"molecule": "CCCC(=O)N1CCCN(c2nc(N)c3cc(OC)c(OC)cc3n2)CC1", "qualitative.label": "false (0)"}
{"molecule": "CCOC(=O)[C@H](CCc1ccccc1)N[C@@H](C)C(=O)N1CC2(C[C@H]1C(=O)O)SCCS2", "qualitative.label": "false (0)"}
{"molecule": "Cc1ccccc1CNc1ncnc2c1ncn2[C@@H]1O[C@H](CO)[C@@H](O)[C@H]1O", "qualitative.label": "false (0)"}
{"molecule": "CC(C)(C)C1(O)CCN2CC3c4ccccc4CCc4cccc(c43)C2C1 (stereo unspecified)", "qualitative.label": "false (0)"}
{"molecule": "CNC(=O)c1c(I)c(C(=O)NCC(=O)Nc2c(I)c(C(=O)O)c(I)c(C(=O)NCCO)c2I)c(I)c(N(C)C(C)=O)c1I", "qualitative.label": "false (0)"}
{"molecule": "COC(=O)[C@H]1[C@H]2C[C@@H]3c4[nH]c5cc(OC)ccc5c4CCN3C[C@H]2C[C@@H](OC(=O)/C=C/c2cc(OC)c(OC)c(OC)c2)[C@@H]1OC", "qualitative.label": "false (0)"}
{"molecule": "O=C(O)CO.[NH2-].[NH2-].[Pt+2]", "qualitative.label": "false (0)"}
{"molecule": "COc1ccc(C[C@H](N)C(=O)N[C@H]2[C@@H](O)[C@H](n3cnc4c(N(C)C)ncnc43)O[C@@H]2CO)cc1", "qualitative.label": "true (1)"}
{"molecule": "CN=C1C=CC(=C(c2ccc(N(C)C)cc2)c2ccc(N(C)C)cc2)C=C1", "qualitative.label": "true (1)"}
{"molecule": "COc1cc2c(cc1OC)[C@@H](c1ccccc1)CN(C)CC2", "qualitative.label": "false (0)"}
{"molecule": "CCN(CC)CCOCCOC(=O)C(CC)(CC)c1ccccc1", "qualitative.label": "false (0)"}
{"molecule": "CO[C@@H]1[C@@H](O[C@@H]2O[C@H](C)[C@@H](O[C@H]3C[C@@](C)(O)[C@@H](O)[C@H](C)O3)[C@H](N(C)C)[C@H]2O)[C@@H](CC=O)C[C@@H](C)[C@@H](O[C@@H]2CC[C@H](N(C)C)[C@@H](C)O2)/C=C/C=C/C[C@@H](C)OC(=O)C[C@H]1O", "qualitative.label": "false (0)"}
{"molecule": "O=S(=O)(O)CCCS(=O)(=O)O", "qualitative.label": "false (0)"}
{"molecule": "C[N+](C)(CCCCCC[N+](C)(C)C1c2ccccc2-c2ccccc21)C1c2ccccc2-c2ccccc21", "qualitative.label": "false (0)"}
{"molecule": "NCCC(=O)[N-][C@@H](Cc1cnc[nH]1)C(=O)O.[Zn]", "qualitative.label": "false (0)"}
{"molecule": "CC1(C)N=C(N)N=C(N)N1c1ccc(Cl)cc1", "qualitative.label": "false (0)"}
{"molecule": "CC(CN(C)C)CN1c2ccccc2S(=O)(=O)c2ccccc21 (stereo unspecified)", "qualitative.label": "false (0)"}
{"molecule": "C=C1/C(=C\\C=C2/CCC[C@]3(C)[C@@H]([C@H](C)OCCC(C)(C)O)CC[C@@H]23)C[C@@H](O)C[C@@H]1O", "qualitative.label": "false (0)"}
{"molecule": "c1ccc2c(CCC3CCNCC3)c[nH]c2c1", "qualitative.label": "false (0)"}
{"molecule": "CC(=C\\c1ccccc1)/C=C1/SC(=S)N(CC(=O)O)C1=O", "qualitative.label": "true (1)"}
{"molecule": "CCCCC[C@H](O)/C=C/[C@@H]1[C@H]2C/C(=C/CCCC(=O)O)O[C@H]2C[C@H]1O", "qualitative.label": "false (0)"}
{"molecule": "NCCC[C@H](N)CC(=O)N[C@H]1CNC(=O)[C@H]([C@H]2C[C@H](O)NC(N)=N2)NC(=O)/C(=C/NC(N)=O)NC(=O)[C@H](CO)NC(=O)[C@H](CO)NC1=O (β3hOrn-[Dap]SS[ΔAla(Z-3-ureido)][X5]; lactam 1-C)", "qualitative.label": "false (0)"}
{"molecule": "Cc1cccc(Nc2ncccc2C(=O)O)c1C", "qualitative.label": "false (0)"}
{"molecule": "CC1CCC(NC(=O)N(CCCl)N=O)CC1 (stereo unspecified)", "qualitative.label": "false (0)"}
{"molecule": "COc1ccc2cc([C@H](C)CO)ccc2c1", "qualitative.label": "false (0)"}
{"molecule": "C[N+]1(C)CCN(CC(O)(c2ccccc2)C2CCCCC2)CC1 (stereo unspecified)", "qualitative.label": "false (0)"}
{"molecule": "CC(C)[C@H](N)C(=O)OCC(CO)OCn1cnc2c(=O)[nH]c(N)nc21 (stereo partly specified)", "qualitative.label": "false (0)"}

###

# protocol.description: qHTS assay to identify small molecule antagonists of the estrogen receptor alpha (ER-alpha) signaling pathway using the BG1 cell line - cell viability counter screen (AID 743081);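 also: compound given together with 17beta-estradiol as the ER stimulus; nearly all actives have a fitted effect of over 45% in size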
# study.conditions: BG1Luc4E2 viability, CellTiter-Fluor, 22 h; series mostly up to 70.3 µM
Inconclusive results are not listed. Activity calls are given as the source filed them. Calls come from the whole dose curve; as a rule, active = well fitted cell-killing curve with a large enough effect in the repeat runs; inconclusive = weak or mixed curves, or effect the other way; inactive = flat fitted curve, though single readings scatter.
Possible outcomes: 1.0 (active), 0.0 (inactive)

{"molecule.smiles": "O=P(O)(O)OC[C@H]1O[C@](O)(COP(=O)(O)O)[C@@H](O)[C@@H]1O", "qualitative.label": 0.0}
{"molecule.smiles": "CCNC(=O)[C@@H]1CCCN1C(=O)[C@H](CCCN=C(N)N)NC(=O)[C@H](CC(C)C)NC(=O)[C@@H](Cc1c[nH]c2ccccc12)NC(=O)[C@H](Cc1ccc(O)cc1)NC(=O)[C@H](CO)NC(=O)[C@H](Cc1c[nH]c2ccccc12)NC(=O)[C@H](Cc1cnc[nH]1)NC(=O)[C@@H]1CCC(=O)N1", "qualitative.label": 1.0}
{"molecule.smiles": "CC(C)[C@@H](C)/C=C/[C@@H](C)[C@H]1CC[C@H]2/C(=C/C=C3\\C[C@@H](O)CC[C@@H]3C)CCC[C@]12C", "qualitative.label": 0.0}

###

# protocol.description: qHTS assay for identifying genotoxic compounds that show differential cytotoxicity against isogenic chicken DT40 cell lines with known DNA damage response pathways - Rev3 mutant cell line (AID 743014); also: nearly all actives have a fitted effect of over 55% in size; also: potency is read from the fitted curve at half-maximal effect
# study.conditions: chicken DT40 Rev3-/- viability, CellTiter-Glo, 40 h; series mostly up to 68.4 µM
Results filed as inconclusive are left out. Active and inactive are the calls of the source. Calls come from the whole dose curve; as a rule, active = well fitted cell-killing curve with a large enough effect in the repeat runs; inconclusive = weak or mixed curves, or effect the other way; inactive = no such curve, though single readings can be large or run the other way. Positions of bridges follow the written chain, without caps; N, C: chain ends. Non-standard residues stand in square brackets, D forms with d. Residues, ends and D or L forms follow the SMILES beside them. Orn = NCCC[C@H](N)C(=O)O; Mpa = O=C(O)CCS

{"compound": "CCC(C)(C)OC(=O)N[C@@H](Cc1c[nH]c2ccccc12)C(=O)N[C@@H](CCSC)C(=O)N[C@@H](CC(=O)O)C(=O)N[C@@H](Cc1ccccc1)C(N)=O", "Potency": "inactive"}
{"compound": "FC(F)(F)C(F)(F)C(F)(F)C(F)(F)C(F)(F)C(F)(F)F", "Potency": "inactive"}
{"compound": "COC(=O)[C@@H](N)CS", "Potency": "inactive"}
{"compound": "CN1[C@@H]2CCC[C@H]1CC(NC(=O)c1nn(C)c3ccccc13)C2 (some centres not stated)", "Potency": "inactive"}
{"compound": "CCCCCCCCCCCCOCCCN", "Potency": "inactive"}
{"compound": "CCCC(CCC)C(N)=O", "Potency": "inactive"}
{"compound": "CS(=O)(=O)OCCCNCCCOS(C)(=O)=O", "Potency": "inactive"}
{"compound": "CN(C)CCCN1c2ccccc2C(C)(C)c2ccccc21", "Potency": "26600 nM (active)"}
{"compound": "CCC(=O)OCC(=O)[C@@]1(OC(=O)CC)[C@H](C)C[C@H]2[C@@H]3CCC4=CC(=O)C=C[C@]4(C)[C@@]3(F)[C@@H](O)C[C@@]21C", "Potency": "29800 nM (active)"}
{"compound": "O=C(NNCNNC(=O)c1ccncc1)c1ccncc1", "Potency": "inactive"}
{"compound": "O=C(Cc1cccs1)N[C@@H]1C(=O)N2C(C(=O)[O-])=C(C[n+]3ccccc3)CS[C@H]12", "Potency": "inactive"}
{"compound": "OC(CN1CCCCC1)c1cc(-c2ccccc2)on1 (configuration not stated)", "Potency": "inactive"}
{"compound": "C[C@H](CCCC(C)(C)O)[C@H]1CC[C@H]2[C@@H]3CC=C4C[C@@H](O)CC[C@]4(C)[C@H]3CC[C@]12C", "Potency": "211 nM (active)"}
{"compound": "O=[N+]([O-])c1ccc(Oc2ccc(N=C=S)cc2)cc1", "Potency": "23700 nM (active)"}
{"compound": "CC(=O)N[C@@H]([C@@H](O)[C@H](O)[C@H](O)CO)[C@@H](O)CC(=O)C(=O)O", "Potency": "inactive"}
{"compound": "CCOc1ccc(C[C@H]2NC(=O)CCSSC[C@@H](C(=O)N3CCC[C@H]3C(=O)N[C@@H](CCCN)C(=O)NCC(N)=O)NC(=O)[C@H](CC(N)=O)NC(=O)[C@H]([C@@H](C)O)NC(=O)[C@H]([C@@H](C)CC)NC2=O)cc1 ([Mpa][dY](Et)ITNCP[Orn]G-NH2; disulfide 1-6)", "Potency": "inactive"}
{"compound": "CCCN(CC)C(CC)C(=O)Nc1c(C)cccc1C (configuration not stated)", "Potency": "inactive"}
{"compound": "COc1cc(Br)c(C[N+]2(CCOCCC3CCC4CC3C4(C)C)CCOCC2)cc1OC (configuration not stated)", "Potency": "2660 nM (active)"}
{"compound": "CC1(C)[C@@H]2CC[C@@]1(C)[C@H](OC(=O)CSC#N)C2", "Potency": "inactive"}
{"compound": "CC1(S(=O)(=O)O)CC(=O)c2ccccc2C1=O (configuration not stated)", "Potency": "11900 nM (active)"}
{"compound": "Cc1c(Cl)cccc1Nc1ncccc1C(=O)O", "Potency": "inactive"}
{"compound": "CC[C@@H](C(=O)[C@@H](C)[C@@H](O)[C@H](C)[C@@H]1O[C@@H]([C@@H](CC)C(=O)O)CC[C@@H]1C)[C@H]1O[C@]2(C=C[C@@H](O)[C@]3(CC[C@@](C)([C@H]4CC[C@](O)(CC)[C@H](C)O4)O3)O2)[C@H](C)C[C@@H]1C", "Potency": "944 nM (active)"}
{"compound": "OC[C@H]1O[C@@H](n2cnc3c2NC=NC[C@H]3O)C[C@@H]1O", "Potency": "inactive"}
{"compound": "CS(=O)(=O)OCC(O)C(O)COS(C)(=O)=O (configuration not stated)", "Potency": "1330 nM (active)"}
{"compound": "CO[C@H]1O[C@@H]2O[C@@]3(C)CC[C@H]4[C@H](C)CC[C@@H]([C@H]1C)[C@@]24OO3", "Potency": "1680 nM (active)"}
{"compound": "CC(=O)[C@]1(O)Cc2c(O)c3c(c(O)c2[C@@H](O[C@H]2C[C@H](N)[C@H](O)[C@H](C)O2)C1)C(=O)c1c(O)cccc1C3=O", "Potency": "18.8 nM (active)"}
{"compound": "CCN(CC)c1ccc(C(=C2C=CC(=[N+](CC)CC)C=C2)c2ccccc2)cc1", "Potency": "106 nM (active)"}
